- TARGET UNDER TEST: T1, MICB005-ECD-HISAvi (human, UniProt Q29980 24-309)
- T1 construct: Two sources under one name in the two kinetic assays; also called MICB005 polypeptide
- T1 sequence: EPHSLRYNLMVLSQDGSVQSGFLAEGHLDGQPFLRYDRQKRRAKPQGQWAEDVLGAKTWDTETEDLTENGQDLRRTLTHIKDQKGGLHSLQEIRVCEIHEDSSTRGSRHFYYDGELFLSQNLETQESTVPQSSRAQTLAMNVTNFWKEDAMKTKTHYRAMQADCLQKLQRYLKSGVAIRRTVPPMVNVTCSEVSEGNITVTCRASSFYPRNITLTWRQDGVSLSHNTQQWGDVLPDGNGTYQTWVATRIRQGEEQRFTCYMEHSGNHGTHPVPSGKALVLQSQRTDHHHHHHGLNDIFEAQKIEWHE
- EXPERIMENTAL DETAILS: SPR (Carterra); antibody captured by anti-human Fc, monomeric ECD antigen injected;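 also: dissociation phase followed for about 10 min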
pKd: −log10 of the molar value.
MEASURED ATTRIBUTE: pKd

BINDER: #39 (antibody, human IgG1, V domains shown, also called PL114G03; Hit ID 39) VH: QVQLQQSGAELVRPGTSVKVSCKASGYAFTDYLIEWVKQRPGQGLEWIGGINPGSGSTNYNEKFKGKAILTADKSSSTAYMQLSSLTSDDSAVYFCARLDGNYVGYWGQGTTLTVSS VL: DILLTQSPASLSASVGETVTITCRASGNIHNYLAWYQQKQGKSPQLLVYHAKTLADGVPSRFSGSGSGTQYSLKINSLQPEDFGSYYCQHFWSTPWTFGGGTKLEIK
MEASURED ATTRIBUTE: pKd
MEASUREMENT: 8.27
//
BINDER: 3F9 (antibody, human IgG1, kappa, V domains shown, also called benchmark 3F9) VH: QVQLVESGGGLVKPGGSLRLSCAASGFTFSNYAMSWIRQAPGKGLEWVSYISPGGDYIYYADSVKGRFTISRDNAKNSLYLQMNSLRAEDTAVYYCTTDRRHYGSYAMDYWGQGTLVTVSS VL: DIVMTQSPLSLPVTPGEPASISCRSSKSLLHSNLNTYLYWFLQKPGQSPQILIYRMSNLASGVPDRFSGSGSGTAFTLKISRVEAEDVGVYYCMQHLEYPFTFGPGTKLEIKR
MEASURED ATTRIBUTE: pKd
MEASUREMENT: 8.03
//
BINDER: #40 (antibody, human IgG1, V domains shown, also called PL113C03; Hit ID 40) VH: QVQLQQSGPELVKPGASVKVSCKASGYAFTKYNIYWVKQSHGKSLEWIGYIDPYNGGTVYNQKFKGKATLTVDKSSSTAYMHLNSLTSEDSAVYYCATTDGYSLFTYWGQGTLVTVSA VL: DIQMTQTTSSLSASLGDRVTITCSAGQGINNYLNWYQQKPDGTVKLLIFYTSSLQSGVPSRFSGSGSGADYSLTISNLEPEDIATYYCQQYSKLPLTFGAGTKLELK
MEASURED ATTRIBUTE: pKd
MEASUREMENT: 7.34
